Assay: Stability in human Jurkat T cells assessed as compound remaining at EC50 concentration after 3 days by HPLC-MS analysis
Type: ADME, cell-based
Conditions: time 3 day, read-out: Stabilty
Where a SMILES comes first, the peptide text is derived from it. [ ]: non-standard residue; d: D form. The star is where a group is joined. Mycophenolyl = COc1c(C)c2c(c(O)c1C/C=C(\C)CCC(=O)*)C(=O)OC2; Arg(NO2) = N=C(NCCC[C@H](N)C(=O)O)N[N+](=O)[O-]
For each entry below, report its remaining at 72 h value.
Numbers only, in %.

{"Compound": "COC(=O)[C@H](CCCNC(=N)N[N+](=O)[O-])NC(=O)[C@@H]1CCCN1C(=O)[C@H](CCCCNC(=O)[C@H](C)N)NC(=O)[C@@H](NC(=O)CC/C(C)=C/Cc1c(O)c2c(c(C)c1OC)COC2=O)[C@@H](C)O (Mycophenolyl-TK(Ala)P[Arg(NO2)]-OMe)", "Unit Of Measure": "%", "remaining at 72 h": 50}

With those in mind, consider the next compound.
Return value of remaining at 72 h for input COC(=O)[C@@H](NC(=O)[C@H](CCCCN)NC(=O)[C@@H]1CCCN1C(=O)[C@H](CCCNC(=N)N[N+](=O)[O-])NC(=O)CC/C(C)=C/Cc1c(O)c2c(c(C)c1OC)COC2=O)[C@@H](C)O (Mycophenolyl-[Arg(NO2)]PKT-OMe) , no commentary.
50
